# Species on record: Rattus norvegicus
# TEST_METHOD_NOTES: Selectivity ratio of Ki for NET in rat brain frontal cortex to Ki for SERT in rat brain stem
# Format: tissue-based
Reported Ratio Ki by item:
Please state the value as a number alone, without comment.

Recorded Ratio Ki, per entry:
1) CN(C)CCC[C@]1(c2ccc(F)cc2)OCc2cc(Br)ccc21 ... 915
2) CN(C)CCC[C@@]1(c2ccc(F)cc2)OCc2cc(Br)ccc21 ... 9140
3) CN(C)CCCC1(c2ccc(F)cc2)OCc2cc(-c3cccc(Cl)c3)ccc21 (stereo not given) ... 93
4) CN(C)CCCC1(c2ccc(F)cc2)OCc2cc(-c3ccc(Cl)c(Cl)c3)ccc21 (stereo not given) ... 89

Okay, now this molecule:
Fill in Ratio Ki for record CN(C)CCC[C@@]1(c2ccc(F)cc2)OCc2cc(/C=C/c3ccccc3)ccc21
1590

----------
// each record: one item and its Ki for UniProtKB P23977
Sequence (P23977 whole entry): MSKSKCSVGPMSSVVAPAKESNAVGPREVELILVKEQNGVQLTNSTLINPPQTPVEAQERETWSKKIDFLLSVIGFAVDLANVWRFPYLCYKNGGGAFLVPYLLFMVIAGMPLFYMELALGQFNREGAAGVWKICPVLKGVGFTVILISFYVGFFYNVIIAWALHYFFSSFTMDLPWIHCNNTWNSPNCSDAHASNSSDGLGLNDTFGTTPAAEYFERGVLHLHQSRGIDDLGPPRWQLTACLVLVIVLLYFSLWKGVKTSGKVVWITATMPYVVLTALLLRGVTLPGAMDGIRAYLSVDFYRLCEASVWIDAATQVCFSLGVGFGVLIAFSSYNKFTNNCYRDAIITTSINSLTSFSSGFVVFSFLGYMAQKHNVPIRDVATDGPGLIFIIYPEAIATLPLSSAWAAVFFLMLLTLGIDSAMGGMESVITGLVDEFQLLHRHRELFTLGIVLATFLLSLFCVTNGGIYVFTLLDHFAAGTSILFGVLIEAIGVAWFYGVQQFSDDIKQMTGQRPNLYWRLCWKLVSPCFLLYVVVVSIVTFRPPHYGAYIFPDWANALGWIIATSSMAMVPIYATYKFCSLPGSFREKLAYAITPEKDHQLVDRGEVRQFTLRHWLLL
Write the answer as a number in µM, unit excluded.

For CN(C)CCC[C@]1(c2ccc(F)cc2)OCc2cc(Br)ccc21 , write its Ki.
1.35

Check the records and state Ki for CN(C)CCCC1(c2ccc(F)cc2)OCc2cc(-c3cccc(C#N)c3)ccc21 (stereo unspecified)
0.737

Quick one: give measured Ki for CN(C)CCCC1(c2ccc(F)cc2)OCc2cc(/C=C/c3ccccc3)ccc21 (racemic)
0.836

Give Ki for CN(C)CCCC1(c2ccc(F)cc2)OCc2cc(-c3cccc(Cl)c3)ccc21 (stereo unspecified)
1.39

Return Ki for the following compound: CN(C)CCCC1(c2ccc(F)cc2)OCc2c(-c3cccc(F)c3)cccc21 (stereo unspecified)
0.49

Find the measured Ki of CN(C)CCCC1(c2ccc(F)cc2)OCc2c(-c3ccccc3)cccc21 (stereo unspecified) and report it.
0.542

Provide one value: measured Ki of CN(C)CCC[C@@]1(c2ccc(F)cc2)OCc2cc(/C=C/c3ccccc3)ccc21
1.81

Indicate the recorded Ki value for this compound: CN(C)CCCC1(c2ccc(F)cc2)OCc2cc(-c3cccc(N)c3)ccc21 (stereo unspecified)
1.69

Give Ki for the following compound: CN(C)CCCC1(c2ccc(F)cc2)OCc2c(Br)cccc21 (stereo unspecified)
0.216

In one line, give reported Ki of the entry CN(C)CCCC1(c2ccc(F)cc2)OCc2c(/C=C/c3ccccc3)cccc21 (stereo unspecified) .
1.14

Given CN(C)CCCC1(c2ccc(F)cc2)OCc2cc(-c3ccccc3)ccc21 (stereo unspecified) , respond with its Ki.
1.8

----------
Readings of IC50 for the listed compounds
# TEST_METHOD_NOTES: Displacement of [3H]leucine from Leucine transporter
API: value field is a number in µM; no unit string.

Answered examples (2):
1. CN(C)CCC[C@]1(c2ccc(F)cc2)OCc2cc(Br)ccc21 ... 420
2. CN(C)CCC[C@@]1(c2ccc(F)cc2)OCc2cc(Br)ccc21 ... 400

Supply reported IC50 belonging to this compound: CN(C)CCC[C@@]1(c2ccc(F)cc2)OCc2cc(C#N)ccc21
1560

----------
# Species on record: Rattus norvegicus
# TEST_METHOD_NOTES: Selectivity ratio of Ki for NET in rat brain frontal cortex to Ki for SERT in rat brain stem
# Assay type: tissue-based
QUANTITY_KIND: Ratio Ki
The answer should be written as a number, with no unit following it.

Recorded results for 2 compounds are shown here.
1) CN(C)CCCC1(c2ccc(F)cc2)OCc2cc(/C=C/c3ccccc3)ccc21 (racemic) ... 1220
2) CN(C)CCCC1(c2ccc(F)cc2)OCc2cc(-c3cccc(C#N)c3)ccc21 (stereo not given) ... 743

Let me know recorded Ratio Ki for CN(C)CCC[C@]1(c2ccc(F)cc2)OCc2cc(/C=C/c3ccccc3)ccc21 , thanks.
46

For the compound CN(C)CCCC1(c2ccc(F)cc2)OCc2cc(-c3ccccc3)ccc21 (stereo not given) , give its reported Ratio Ki.
423

Determine its reported Ratio Ki: CN(C)CCCC1(c2ccc(F)cc2)OCc2c(-c3ccccc3)cccc21 (stereo not given)
1410

----------
# SYSTEM_UNDER_TEST: Transporter (Rattus norvegicus)
# Sequence (Q63380 whole entry): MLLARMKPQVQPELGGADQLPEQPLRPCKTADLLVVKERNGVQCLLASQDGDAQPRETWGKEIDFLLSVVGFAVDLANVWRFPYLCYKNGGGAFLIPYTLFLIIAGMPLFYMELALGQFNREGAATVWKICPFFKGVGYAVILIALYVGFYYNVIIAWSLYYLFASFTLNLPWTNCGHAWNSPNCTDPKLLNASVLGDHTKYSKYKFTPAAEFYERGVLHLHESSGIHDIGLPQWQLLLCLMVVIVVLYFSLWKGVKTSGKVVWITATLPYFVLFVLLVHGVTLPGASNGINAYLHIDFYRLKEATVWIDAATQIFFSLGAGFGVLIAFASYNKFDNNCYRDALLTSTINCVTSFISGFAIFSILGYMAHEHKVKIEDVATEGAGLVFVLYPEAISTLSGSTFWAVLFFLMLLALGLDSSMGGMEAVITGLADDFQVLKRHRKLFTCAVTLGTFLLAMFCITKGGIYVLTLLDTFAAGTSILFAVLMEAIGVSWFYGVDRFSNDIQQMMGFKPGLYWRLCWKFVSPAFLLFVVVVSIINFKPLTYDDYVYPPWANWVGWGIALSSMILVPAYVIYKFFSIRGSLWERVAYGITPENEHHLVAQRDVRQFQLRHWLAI
Could you mark each record Condition met if its Ki falls strictly under 6 µM, and Condition not met if it equals or exceeds it?

1) COc1cccc(-c2ccc3c(c2)COC3(CCCN(C)C)c2ccc(F)cc2)c1 (stereo not given) ... Condition met

Input CN(C)CCCC1(c2ccc(F)cc2)OCc2cc(CCc3ccccc3)ccc21 (stereo not given) ; condition: Ki strictly below 6 µM. Does it hold?
Condition met

Lab note: confirm whether the reported Ki for this molecule is below 6 µM, equality not counting. molecule: CN(C)CCC[C@]1(c2ccc(F)cc2)OCc2cc(Br)ccc21
Condition not met

Ki under 6 µM? Item: CN(C)CCC[C@]1(c2ccc(F)cc2)OCc2cc(/C=C/c3ccccc3)ccc21
Condition met

Check if Ki falls below 6 µM for CN(C)CCCC1(c2ccc(F)cc2)OCc2cc(/C=C/c3ccccc3)ccc21 (racemic) .
Condition not met

Dear reviewer, please state whether CN(C)CCCC1(c2ccc(F)cc2)OCc2cc(-c3cccc(Cl)c3)ccc21 (stereo not given) has Ki strictly beneath 6 µM.
Condition met

----------
Collected pKi values appear next to each entry.
# SYSTEM_UNDER_TEST: Sodium-dependent serotonin transporter (Rattus norvegicus)
# Sequence (P31652 whole entry): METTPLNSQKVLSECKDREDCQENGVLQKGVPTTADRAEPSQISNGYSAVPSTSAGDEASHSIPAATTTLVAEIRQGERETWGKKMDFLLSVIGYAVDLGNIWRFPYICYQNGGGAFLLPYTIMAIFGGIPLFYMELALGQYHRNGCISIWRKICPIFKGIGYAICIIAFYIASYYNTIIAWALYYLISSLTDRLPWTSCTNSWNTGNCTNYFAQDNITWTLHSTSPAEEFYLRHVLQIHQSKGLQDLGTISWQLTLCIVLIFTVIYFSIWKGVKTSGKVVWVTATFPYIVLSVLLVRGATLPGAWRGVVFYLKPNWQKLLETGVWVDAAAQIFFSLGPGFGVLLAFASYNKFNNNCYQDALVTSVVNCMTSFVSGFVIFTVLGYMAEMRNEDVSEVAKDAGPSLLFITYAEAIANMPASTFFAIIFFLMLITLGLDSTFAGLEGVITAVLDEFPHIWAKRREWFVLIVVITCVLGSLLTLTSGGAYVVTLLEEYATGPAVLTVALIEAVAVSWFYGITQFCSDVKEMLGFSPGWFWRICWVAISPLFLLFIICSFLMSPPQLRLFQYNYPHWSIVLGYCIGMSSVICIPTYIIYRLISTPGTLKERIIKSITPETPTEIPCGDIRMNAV
# TEST_METHOD_NOTES: Displacement of [3H]citalopram from SERT in rat brain stem by scintillation counting
# Format: tissue-based
Worth noting: pKi values are minus log10 of concentrations stated in mol/L.

Sample records with pKi:
1) CN(C)CCCC1(c2ccc(F)cc2)OCc2cc(-c3ccc(Cl)c(Cl)c3)ccc21 (stereo not given) ... 6.84
2) CN(C)CCCC1(c2ccc(F)cc2)OCc2cc(-c3cccc(N)c3)ccc21 (stereo not given) ... 7.98
3) CN(C)CCC[C@@]1(c2ccc(F)cc2)OCc2cc(Br)ccc21 ... 9.04
4) CN(C)CCCC1(c2ccc(F)cc2)OCc2cc(I)ccc21 (stereo not given) ... 8.85

Please examine the following record next.
Determine its reported pKi: COc1cccc(-c2ccc3c(c2)COC3(CCCN(C)C)c2ccc(F)cc2)c1 (stereo not given)
8.04

----------
# Species: Rattus norvegicus
# TEST_METHOD_NOTES: Selectivity ratio of Ki for NET in rat brain frontal cortex to Ki for SERT in rat brain stem
# Type: tissue-based
QUANTITY_KIND: Ratio Ki

See these solved cases before continuing.
1. CN(C)CCCC1(c2ccc(F)cc2)OCc2c(-c3cccc(F)c3)cccc21 (centres undefined) ... 933
2. CN(C)CCCC1(c2ccc(F)cc2)OCc2cc(/C=C/c3ccc(Cl)cc3)ccc21 (centres undefined) ... 747

Hello, please tell me recorded Ratio Ki for this one: CN(C)CCCC1(c2ccc(F)cc2)OCc2c(/C=C/c3ccccc3)cccc21 (centres undefined)
256

For CN(C)CCCC1(c2ccc(F)cc2)OCc2c(Br)cccc21 (centres undefined) , write its Ratio Ki.
1590

----------
# SYSTEM_UNDER_TEST: Sodium-dependent serotonin transporter (Rattus norvegicus)
Classify: MET when Ki is strictly less than 10 nM; NOT MET when Ki is not.

Given CN(C)CCCC1(c2ccc(F)cc2)OCc2cc(Br)ccc21 (racemic) , is recorded Ki strictly lower than 10 nM?
MET

Could you please tell me whether Ki recorded for CN(C)CCC[C@@]1(c2ccc(F)cc2)OCc2cc(/C=C/c3ccccc3)ccc21 is less than 10 nM?
NOT MET

State whether 10 nM exceeds Ki recorded for CN(C)CCCC1(c2ccc(F)cc2)OCc2cc(/C=C/c3ccc(Cl)cc3)ccc21 (stereo unspecified) .
NOT MET

Could you please tell me whether Ki recorded for CN(C)CCCC1(c2ccc(F)cc2)OCc2c(/C=C/c3ccccc3)cccc21 (stereo unspecified) is less than 10 nM?
NOT MET

Record CN(C)CCCC1(c2ccc(F)cc2)OCc2c(-c3cccc(F)c3)cccc21 (stereo unspecified) : is its Ki strictly below 10 nM?
MET

Check if Ki falls below 10 nM for CN(C)CCC[C@]1(c2ccc(F)cc2)OCc2cc(/C=C/c3ccccc3)ccc21 .
NOT MET

----------
Items are presented alongside their recorded Ki.
# SYSTEM_UNDER_TEST: UniProt:Q63380
// units = µM; emit number, no label

Below: 3 compounds and their reported Ki.
1) CN(C)CCCC1(c2ccc(F)cc2)OCc2cc(-c3ccccc3)ccc21 (centres undefined) ... 16.9
2) CN(C)CCCC1(c2ccc(F)cc2)OCc2c(/C=C/c3ccccc3)cccc21 (centres undefined) ... 11.9
3) CN(C)CCCC1(c2ccc(F)cc2)OCc2cc(-c3ccc(Cl)c(Cl)c3)ccc21 (centres undefined) ... 12.7

Report value only: Ki, UniProt:Q63380, CN(C)CCC[C@@]1(c2ccc(F)cc2)OCc2cc(Br)ccc21
8.41
